Assay: Volume of distribution at steady state in Beagle dog at 0.1 mg/kg, iv by cassette assay
Type: ADME, organism-based, Canis lupus familiaris
Design: dose 0.1 mg/kg, route intravenous
Conditions: in vivo, read-out: Vdss
metric-name: Vd
Include the unit right after the number.

Look over these answered cases.
C[C@H](Cc1ccc(-c2ccc(C(=O)O)c(OC3CCCCC3)c2)cc1)NC[C@H](O)c1ccccc1 ... 1.13 L/kg
CC(C)Oc1cc(-c2ccc(C[C@@H](C)NC[C@H](O)c3ccccc3)cc2)ccc1C(=O)O ... 5.4 L/kg
CC(C)COc1cc(-c2ccc(C[C@@H](C)NC[C@H](O)c3ccccc3)cc2)ccc1C(=O)O ... 30.8 L/kg

Q. I have this compound here, CCOc1cc(-c2ccc(C[C@@H](C)NC[C@H](O)c3ccccc3)cc2)ccc1C(=O)O , and I need its recorded Vd.
A. 1.9 L/kg
